Listing of recorded pKd by entry.
molecular target: DLG2_2, Q15700; assay: holdup assay; design: key: below the threshold = too weak to quantify, mostly under pKd 3.1 to 4; conditions: plain residues with an end cap or a label only (N-terminal biotin on a linker: ado-ado)
Sequence (Q15700 189-283): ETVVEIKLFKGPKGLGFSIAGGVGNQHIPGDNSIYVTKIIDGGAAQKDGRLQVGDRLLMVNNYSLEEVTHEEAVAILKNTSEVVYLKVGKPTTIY
Enter a number only.

Some solved entries appear below for comparison.
EIPAQSPTCV [FZD10, Q9ULW2] = 3.89
PPGKHLVTEV [KCNA7, Q96RP8] = 5.01
KPGKGSETVV [FZD4, Q9ULV1] = 4.87

Could you now look at the following binder, please?
Determine its reported pKd: ELSATVTTDC [TRIP6, Q15654]
3.59
